Assay: Pharmacokinetics after single oral administration to rats
Assay type: in vivo, rat
Details: male, Wistar, rat, plasma, oral, 100 mg/kg, Table S7, 100 mg/kg PO, male Wistar rats, 48 h, mean of Rat#7-12; read-out: Plasma concentration, Mean
experimental-endpoint: concentration at 48 h (ng/mL)
Number in ng/mL, nothing else.

Enquiry: Endpoint output: concentration at 48 h of COc1cc(Nc2ncnc(Nc3cc4c(cn3)NC(=O)C(C)(C)O4)n2)cc(OC)c1OC . Value?
Return: 1.79

* * *

Assay: Pharmacokinetics after single oral administration to rats
Format: in vivo, rat
Conditions: male, Wistar, rat, plasma, po, 100 mg/kg, Table S7, 100 mg/kg PO, male Wistar rats, plasma, individual Rat#7-12; read-out: Tmax
experimental-endpoint: Tmax (h)
All answers are understood in h, so give the number only.

Enquiry: I would be grateful if you could share the reported Tmax for COc1cc(Nc2ncnc(Nc3cc4c(cn3)NC(=O)C(C)(C)O4)n2)cc(OC)c1OC [MT-SYK-03] .
Return: 1

* * *

Experiment: Pharmacokinetics after single oral administration to rats
Assay type: in vivo, rat
Details: male, Wistar, rat, plasma, oral, 100 mg/kg, Table S7, 100 mg/kg PO, male Wistar rats, 2 h, individual Rat#7-12; read-out: Plasma concentration
experimental-endpoint: concentration at 2 h (ng/mL)
Please respond with the number in ng/mL and leave the unit unwritten.

Enquiry: Which concentration at 2 h is reported for this molecule? COc1cc(Nc2ncnc(Nc3cc4c(cn3)NC(=O)C(C)(C)O4)n2)cc(OC)c1OC
Return: 519

* * *

Assay: Tissue distribution after single oral administration in rats
Format: in vivo, rat
Conditions: rat; kidney, 100 mg/kg PO, male Wistar rats, Estimated Value; read-out: Terminal t1/2 (converted)
experimental-endpoint: half-life (h)
A number alone suffices; assume h.

Enquiry: Field request: half-life | item: COc1cc(Nc2ncnc(Nc3cc4c(cn3)NC(=O)C(C)(C)O4)n2)cc(OC)c1OC [MT-SYK-03]
Return: 3.38

* * *

Assay: Pharmacokinetics after single oral administration to rabbits
Assay type: in vivo, rabbit
Conditions: male, New Zealand, rabbit, plasma, single oral 50 mg/kg
experimental-endpoint: k el
Please don't drop the unit; write it after the number.

Enquiry: Quick check: k el of COc1cc(Nc2ncnc(Nc3cc4c(cn3)NC(=O)C(C)(C)O4)n2)cc(OC)c1OC [MT-SYK-03] ?
Return: 2.67e-05 s⁻¹

* * *

Assay: Pharmacokinetics after single oral administration to rats
Assay type: in vivo, rat
Conditions: male, Wistar, rat, plasma, oral, 100 mg/kg, Table S6, 100 mg/kg PO, male Wistar rats, 48 h, individual Rat#1-6; read-out: Plasma concentration
experimental-endpoint: concentration at 48 h (ng/mL)
The answer is to be given in ng/mL; state only the numeric part.

Enquiry: Which concentration at 48 h reading was recorded for the molecule COc1cc(Nc2ncnc(Nc3cc4c(cn3)NC(=O)C(C)(C)O4)n2)cc(OC)c1OC ?
Return: 0.984

* * *

Assay: Tissue distribution after single oral administration in rats
Format: in vivo, rat
Settings: male, Wistar, rat, kidney, po, 100 mg/kg, kidney, 100 mg/kg PO, male Wistar rats, 8 h, mean; read-out: Kidney concentration, Mean
experimental-endpoint: concentration at 8 h (ng/mL)
Expressed in ng/mL, but write only the number.

Enquiry: Suppose we examine the compound COc1cc(Nc2ncnc(Nc3cc4c(cn3)NC(=O)C(C)(C)O4)n2)cc(OC)c1OC ; what concentration at 8 h value has been reported?
Return: 612

* * *

Experiment: Tissue distribution after single oral administration in rats
Type: in vivo, rat
Conditions: rat; prostate, 100 mg/kg PO, male Wistar rats, Estimated Value
experimental-endpoint: Cmax (ng/mL)
// note: answer is a bare numeric in ng/mL

Enquiry: Would you mind telling me what Cmax value was observed for COc1cc(Nc2ncnc(Nc3cc4c(cn3)NC(=O)C(C)(C)O4)n2)cc(OC)c1OC ?
Return: 1260

* * *

Target: DDR1 (Homo sapiens, UniProt Q08345)
Sequence (Q08345 19-913): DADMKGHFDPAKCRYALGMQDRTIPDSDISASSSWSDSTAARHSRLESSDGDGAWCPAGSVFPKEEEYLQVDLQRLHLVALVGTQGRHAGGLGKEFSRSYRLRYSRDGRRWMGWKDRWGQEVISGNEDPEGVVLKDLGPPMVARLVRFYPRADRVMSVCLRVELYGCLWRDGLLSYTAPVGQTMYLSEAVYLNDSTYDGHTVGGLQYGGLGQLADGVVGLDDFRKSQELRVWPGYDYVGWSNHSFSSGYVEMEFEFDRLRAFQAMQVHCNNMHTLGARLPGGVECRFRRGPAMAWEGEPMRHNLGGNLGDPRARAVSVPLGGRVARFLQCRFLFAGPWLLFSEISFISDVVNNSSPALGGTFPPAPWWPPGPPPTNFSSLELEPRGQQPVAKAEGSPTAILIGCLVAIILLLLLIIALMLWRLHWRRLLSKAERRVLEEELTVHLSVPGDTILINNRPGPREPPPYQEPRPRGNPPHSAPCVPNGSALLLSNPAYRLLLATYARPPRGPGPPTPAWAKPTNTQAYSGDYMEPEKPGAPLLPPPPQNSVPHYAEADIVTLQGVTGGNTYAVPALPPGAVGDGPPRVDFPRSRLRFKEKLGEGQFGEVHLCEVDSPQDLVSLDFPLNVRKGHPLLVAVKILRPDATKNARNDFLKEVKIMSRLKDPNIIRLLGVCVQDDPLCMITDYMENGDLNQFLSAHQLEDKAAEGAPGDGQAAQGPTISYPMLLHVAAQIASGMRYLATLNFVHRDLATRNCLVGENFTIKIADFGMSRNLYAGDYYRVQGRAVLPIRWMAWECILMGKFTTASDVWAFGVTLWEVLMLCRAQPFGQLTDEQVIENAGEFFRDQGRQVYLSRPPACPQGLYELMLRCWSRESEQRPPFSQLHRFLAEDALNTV
experimental-endpoint: IC50 (nM)
Quick reminder: number only, in nM, skip the unit.

Enquiry: Recorded IC50 of COc1cc(Nc2ncnc(Nc3cc4c(cn3)NC(=O)C(C)(C)O4)n2)cc(OC)c1OC [MT-SYK-03] , please.
Return: 1.8

* * *

Experiment: Pharmacokinetics after single oral administration to rats
Format: in vivo, rat
Details: male, Wistar, rat, plasma, oral, 100 mg/kg, Table S7, 100 mg/kg PO, male Wistar rats, 8 h, mean of Rat#7-12
experimental-endpoint: concentration at 8 h
Numeric answer plus unit only.

Enquiry: Entry under review: COc1cc(Nc2ncnc(Nc3cc4c(cn3)NC(=O)C(C)(C)O4)n2)cc(OC)c1OC [MT-SYK-03] . Reported concentration at 8 h?
Return: 109 ng/mL

* * *

Assay: Pharmacokinetics after single oral administration to rabbits
Assay type: in vivo, rabbit
Settings: male, New Zealand, rabbit, plasma, single oral 50 mg/kg
experimental-endpoint: Tmax (h)
Hi! Could you send only the number? It should be in h, unit omitted.

Enquiry: // Tmax lookup, key: COc1cc(Nc2ncnc(Nc3cc4c(cn3)NC(=O)C(C)(C)O4)n2)cc(OC)c1OC
Return: 6

* * *

Test: Pharmacokinetics after single oral administration to rats
Type: in vivo, rat
Settings: male, Wistar, rat, plasma, oral, 100 mg/kg, Table S7, 100 mg/kg PO, male Wistar rats, 4 h, mean of Rat#7-12
experimental-endpoint: concentration at 4 h (ng/mL)
Form entry: value (ng/mL) — number only.

Enquiry: Could you share which concentration at 4 h value was measured for COc1cc(Nc2ncnc(Nc3cc4c(cn3)NC(=O)C(C)(C)O4)n2)cc(OC)c1OC ?
Return: 384

* * *

Biological target: RET (Homo sapiens)
Sequence (P07949 29-1114): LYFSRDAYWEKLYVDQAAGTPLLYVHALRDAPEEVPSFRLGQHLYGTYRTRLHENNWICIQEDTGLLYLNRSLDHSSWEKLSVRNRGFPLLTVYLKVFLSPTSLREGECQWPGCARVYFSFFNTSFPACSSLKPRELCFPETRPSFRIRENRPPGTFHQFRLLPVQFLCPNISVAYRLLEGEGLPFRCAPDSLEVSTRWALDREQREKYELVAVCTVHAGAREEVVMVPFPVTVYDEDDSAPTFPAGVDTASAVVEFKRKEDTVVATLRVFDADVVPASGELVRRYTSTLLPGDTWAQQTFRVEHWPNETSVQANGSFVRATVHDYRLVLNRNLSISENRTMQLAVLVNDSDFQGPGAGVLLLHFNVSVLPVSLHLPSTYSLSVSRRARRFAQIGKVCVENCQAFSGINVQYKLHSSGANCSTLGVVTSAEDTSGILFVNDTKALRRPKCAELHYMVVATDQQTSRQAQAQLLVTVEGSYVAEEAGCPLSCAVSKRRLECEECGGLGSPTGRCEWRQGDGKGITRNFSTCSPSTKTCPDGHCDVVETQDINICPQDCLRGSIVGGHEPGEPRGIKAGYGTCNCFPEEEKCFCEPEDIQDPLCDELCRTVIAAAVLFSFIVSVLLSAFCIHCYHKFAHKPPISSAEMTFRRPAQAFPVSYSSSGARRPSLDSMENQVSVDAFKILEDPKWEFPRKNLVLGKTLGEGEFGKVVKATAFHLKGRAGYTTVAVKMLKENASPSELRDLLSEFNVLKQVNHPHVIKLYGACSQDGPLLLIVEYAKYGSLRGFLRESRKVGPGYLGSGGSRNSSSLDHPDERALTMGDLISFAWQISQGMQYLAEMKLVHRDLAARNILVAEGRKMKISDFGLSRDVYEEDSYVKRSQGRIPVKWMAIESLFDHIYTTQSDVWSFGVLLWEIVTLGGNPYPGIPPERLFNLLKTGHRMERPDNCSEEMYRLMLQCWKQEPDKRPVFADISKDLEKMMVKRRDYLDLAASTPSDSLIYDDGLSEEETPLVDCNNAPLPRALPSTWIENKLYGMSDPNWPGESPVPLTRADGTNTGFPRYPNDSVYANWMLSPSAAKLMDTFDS
experimental-endpoint: pIC50
Lab note: report pIC50 as minus log10 of the concentration in molar units, number only.

Enquiry: Query the reported pIC50 for RET (Homo sapiens); item: COc1cc(Nc2ncnc(Nc3cc4c(cn3)NC(=O)C(C)(C)O4)n2)cc(OC)c1OC
Return: 7.87

* * *

Test: Pharmacokinetics after single oral administration to rats
Type: in vivo, rat
Conditions: male, Wistar, rat, plasma; rats, single oral 30 mg/kg; read-out: AUC48
Description: Experiments were performed at ChemPartner, Shanghai, China and approved by Institutional Ethics Committee (IEC) of ChemPartner. Male Wistar 10–12 weeks old rats with body weights of 185–220 g and male New Zealand rabbits with body weights of 2.0–2.3 kg were purchased from Shanghai SLAC Laboratory Animal Co., Ltd. MT-SYK-03 was administered to the three groups of rats (six rats per group) via oral gavage at 10 mL/kg concentration, and in rabbits 5 mL/kg concentration. […]
experimental-endpoint: AUC (µg·h/mL)
Just the number in µg·h/mL, nothing appended.

Enquiry: Reported AUC for COc1cc(Nc2ncnc(Nc3cc4c(cn3)NC(=O)C(C)(C)O4)n2)cc(OC)c1OC : what is it?
Return: 2.34

* * *

Test: Tissue distribution after single oral administration in rats
Format: in vivo, rat
Details: rat; muscle, 100 mg/kg PO, male Wistar rats, Estimated Value; read-out: AUC24/AUC24 (plasma)
experimental-endpoint: Kp

Enquiry: Value lookup for Kp; key = COc1cc(Nc2ncnc(Nc3cc4c(cn3)NC(=O)C(C)(C)O4)n2)cc(OC)c1OC
Return: 0.805

* * *

Experiment: Pharmacokinetics after single oral administration to rats
Format: in vivo, rat
Settings: male, Wistar, rat, plasma, oral, 200 mg/kg, Table S8, 200 mg/kg PO, male Wistar rats, 1 h, individual Rat#13-18; read-out: Plasma concentration
experimental-endpoint: concentration at 1 h (ng/mL)
A number alone suffices; assume ng/mL.

Enquiry: What does the data say about its concentration at 1 h? Entry: COc1cc(Nc2ncnc(Nc3cc4c(cn3)NC(=O)C(C)(C)O4)n2)cc(OC)c1OC
Return: 984

* * *

Molecular target: FYN (Homo sapiens, UniProt P06241)
Sequence (P06241 whole entry): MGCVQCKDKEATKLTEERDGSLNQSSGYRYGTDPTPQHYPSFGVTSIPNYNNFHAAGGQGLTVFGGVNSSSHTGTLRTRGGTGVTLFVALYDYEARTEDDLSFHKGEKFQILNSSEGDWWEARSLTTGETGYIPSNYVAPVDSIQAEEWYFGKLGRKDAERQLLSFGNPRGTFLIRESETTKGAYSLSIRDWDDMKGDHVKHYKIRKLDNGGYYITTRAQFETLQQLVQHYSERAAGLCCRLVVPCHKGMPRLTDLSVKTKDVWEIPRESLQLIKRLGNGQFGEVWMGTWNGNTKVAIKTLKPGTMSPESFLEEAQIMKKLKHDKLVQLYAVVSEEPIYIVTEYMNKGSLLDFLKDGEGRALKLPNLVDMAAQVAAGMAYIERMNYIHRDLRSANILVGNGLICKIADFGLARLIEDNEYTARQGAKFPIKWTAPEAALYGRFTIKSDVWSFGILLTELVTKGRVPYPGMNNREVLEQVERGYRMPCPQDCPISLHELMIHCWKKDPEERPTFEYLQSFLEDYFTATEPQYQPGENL
experimental-endpoint: IC50 (nM)
Give your result in nM as a bare value.

Enquiry: Field request: IC50 | item: COc1cc(Nc2ncnc(Nc3cc4c(cn3)NC(=O)C(C)(C)O4)n2)cc(OC)c1OC
Return: 20

* * *

Assay: Pharmacokinetics after single oral administration to rats
Type: in vivo, rat
Details: male, Wistar, rat, plasma, oral, 100 mg/kg, Table S7, 100 mg/kg PO, male Wistar rats, 0.25 h, individual Rat#7-12; read-out: Plasma concentration
experimental-endpoint: concentration at 0.25 h (ng/mL)
Dear colleague, please return just the value in ng/mL, with no unit written.

Enquiry: Item under review: COc1cc(Nc2ncnc(Nc3cc4c(cn3)NC(=O)C(C)(C)O4)n2)cc(OC)c1OC . Reported concentration at 0.25 h?
Return: 400

* * *

Assay: Pharmacokinetics after single oral administration to rats
Format: in vivo, rat
Conditions: male, Wistar, rat, plasma, po, 200 mg/kg, Table S8, 200 mg/kg PO, male Wistar rats, plasma, individual Rat#13-18; read-out: AUClast
experimental-endpoint: AUC(0-t) (ng·h/mL)
State just the number; it will be interpreted in ng·h/mL.

Enquiry: Look at this molecule and give its reported AUC(0-t). COc1cc(Nc2ncnc(Nc3cc4c(cn3)NC(=O)C(C)(C)O4)n2)cc(OC)c1OC
Return: 7480
